# Tgt: CYP2B6 (Homo sapiens, UniProt P20813)
# Construct: co-incubation ticagrelor-O-Glu with selective P450 probe substrates in HLM; tissue XenoTech LLC; host or cells: pooled human liver microsomes
# Sequence (P20813 whole entry): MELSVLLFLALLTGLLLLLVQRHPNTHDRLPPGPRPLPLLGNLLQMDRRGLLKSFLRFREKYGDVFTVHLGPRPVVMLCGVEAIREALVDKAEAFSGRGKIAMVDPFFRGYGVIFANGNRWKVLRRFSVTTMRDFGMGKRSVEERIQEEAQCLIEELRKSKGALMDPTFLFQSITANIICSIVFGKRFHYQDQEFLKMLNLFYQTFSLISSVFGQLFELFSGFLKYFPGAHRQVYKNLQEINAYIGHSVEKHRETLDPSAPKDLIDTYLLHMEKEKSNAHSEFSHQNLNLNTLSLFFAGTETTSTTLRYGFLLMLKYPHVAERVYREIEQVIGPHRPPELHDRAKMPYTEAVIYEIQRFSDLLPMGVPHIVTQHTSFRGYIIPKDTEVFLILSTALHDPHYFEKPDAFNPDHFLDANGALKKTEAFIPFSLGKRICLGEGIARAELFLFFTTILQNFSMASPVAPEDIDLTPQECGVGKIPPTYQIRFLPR
# Protocol Text: CYP2B6 inhibition in HLM (bupropion hydroxylase)
# Type: in vitro ADME
# Condition Set: human, human liver microsomes, pH 7.4, probe bupropion (150 μM), hydroxy bupropion formation; HLM, 100 μM ticagrelor-O-Glu
Measurement Kind: inhibition at 100 µM
Answer with the figure and its unit, nothing else.

response.value for CCCSc1nc(N[C@@H]2C[C@H]2c2ccc(F)c(F)c2)c2nnn([C@@H]3C[C@H](OCCO[C@@H]4O[C@H](C(=O)O)[C@@H](O)[C@H](O)[C@H]4O)[C@@H](O)[C@H]3O)c2n1 [Ticagrelor-O-Glu, ticagrelor-O-glucuronide] (field: inhibition at 100 µM) = 77.9%

Measured values drawn from paper PMC8552062 for this set.
